B1: TPR 5TU (parent)
chain: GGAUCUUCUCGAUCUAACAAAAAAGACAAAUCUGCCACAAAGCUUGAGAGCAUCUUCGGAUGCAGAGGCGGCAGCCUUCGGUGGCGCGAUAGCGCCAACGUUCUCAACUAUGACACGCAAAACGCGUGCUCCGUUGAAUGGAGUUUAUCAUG

Variants of: B1
Assay: polymerase ribozyme fitness, log enrichment relative to wild type (log ratio); higher = more active; in vitro selection for triplet polymerase activity
This sample holds only a part of the variants without activity.
measurement_name: polymerase ribozyme fitness (log ratio)

{"change": "C10G A28G U82G G94C C95A G140A", "bound_operator": "≤", "measured": -4.2}
{"change": "C5G A12G A22U C38A U44G C75A C79U C93A G133U", "bound_operator": "≤", "measured": -4.2}
{"change": "C51U C95G A110U G141U", "bound_operator": "≤", "measured": -4.2}
{"change": "U13G G42A G50U C76A G86C C132A", "bound_operator": "≤", "measured": -4.2}
{"change": "C10A C85G G141U", "bound_operator": "≤", "measured": -4.2}
{"change": "G46A G84U C99A A110C C114U U146C", "bound_operator": "≤", "measured": -4.2}
{"change": "C18G G71C C76A G88A G94A A113G A119U C129U", "bound_operator": "≤", "measured": -4.2}
{"change": "C57A U78G A97G G117A A122G", "bound_operator": "≤", "measured": -4.2}
{"change": "A17U A19C C87G A89U", "bound_operator": "≤", "measured": -4.2}
{"change": "U56C G81U G92U C108G", "bound_operator": "≤", "measured": -4.2}
{"change": "U55G U56A U82C", "bound_operator": "=", "measured": -1.09}
{"change": "A28C A41C C95A G128A G140C G143A", "bound_operator": "≤", "measured": -4.2}
{"change": "A19C A150G", "bound_operator": "=", "measured": -0.495}
{"change": "C93G G141C", "bound_operator": "=", "measured": -3.36}
{"change": "G92A C105A A147U", "bound_operator": "=", "measured": -4.16}
{"change": "C27U C63G C95U C96U C99G", "bound_operator": "=", "measured": -3.33}
{"change": "A12C A24G C85U C95U A120G", "bound_operator": "≤", "measured": -4.2}
{"change": "A66G G133U U145A", "bound_operator": "≤", "measured": -4.2}
{"change": "U31A A39G G67C C72G C96U A107U A113G A115C U148A", "bound_operator": "≤", "measured": -4.2}
{"change": "C32A A91U C99U A120C", "bound_operator": "≤", "measured": -4.2}
{"change": "G46U C54U A73U", "bound_operator": "=", "measured": -3.31}
{"change": "G11U A91G", "bound_operator": "=", "measured": -3.82}
{"change": "U4A A17G C35A G59C U135A", "bound_operator": "≤", "measured": -4.2}
{"change": "A60U C85U G88U C99U", "bound_operator": "≤", "measured": -4.2}
{"change": "A37G C96A U102A C131U G136U", "bound_operator": "≤", "measured": -4.2}
{"change": "A17U A29C C43G G86A U135C", "bound_operator": "=", "measured": -4.06}
{"change": "A60U C99U C118U", "bound_operator": "=", "measured": -2.07}
{"change": "U53G A97C", "bound_operator": "=", "measured": -1.81}
{"change": "U44G G67U A91U A115U A120C", "bound_operator": "≤", "measured": -4.2}
{"change": "A40C U82G G94A", "bound_operator": "=", "measured": 0.746}
{"change": "A20U C57A", "bound_operator": "=", "measured": -1.36}
{"change": "U33G C95A", "bound_operator": "=", "measured": -3}
{"change": "A19G A21C A30U C38G A41C G48A U77G C93G C114G", "bound_operator": "≤", "measured": -4.2}
{"change": "U6G U13G A16G C85G G86A A142G", "bound_operator": "≤", "measured": -4.2}
{"change": "G42C C99U", "bound_operator": "≤", "measured": -4.2}
{"change": "A52C C85U G94C G141C", "bound_operator": "=", "measured": -3.45}
{"change": "U45A G117U", "bound_operator": "=", "measured": -3.08}
{"change": "A28C U82A", "bound_operator": "≤", "measured": -4.2}
{"change": "G50C A66C A91U A106C A137C U148A", "bound_operator": "≤", "measured": -4.2}
{"change": "C75G G84A", "bound_operator": "=", "measured": -3.93}
{"change": "U56A G58U C69U C95A C96A C118U", "bound_operator": "=", "measured": -2.19}
{"change": "U15A U55A G88C U145G", "bound_operator": "=", "measured": -3.86}
{"change": "U6C C85U A121U U135C", "bound_operator": "=", "measured": -3.27}
{"change": "A17G A21G C96G", "bound_operator": "=", "measured": 0.392}
{"change": "A12C A16U U61A C125A", "bound_operator": "=", "measured": -3.45}
{"change": "C96A G124U", "bound_operator": "=", "measured": -0.674}
{"change": "A52C U55G G58C G59A A66C", "bound_operator": "≤", "measured": -4.2}
{"change": "A20C A24G", "bound_operator": "=", "measured": -4.02}
{"change": "C14A A19U U56G G86U C116G C125U G133A G143C", "bound_operator": "≤", "measured": -4.2}
{"change": "A3U C36U C95U", "bound_operator": "=", "measured": -3.09}
{"change": "A16C A20C A41C C85G C116U", "bound_operator": "=", "measured": -3.81}
{"change": "A49U A119C U127A U134A", "bound_operator": "≤", "measured": -4.2}
{"change": "C85G U90A C114A", "bound_operator": "≤", "measured": -4.2}
{"change": "C35G G62C G67C C85G C131A A147U", "bound_operator": "≤", "measured": -4.2}
